Molecular target: δ (DOR) receptor (Homo sapiens (Human), UniProt P41143)
Sequence (P41143 whole entry, looked up): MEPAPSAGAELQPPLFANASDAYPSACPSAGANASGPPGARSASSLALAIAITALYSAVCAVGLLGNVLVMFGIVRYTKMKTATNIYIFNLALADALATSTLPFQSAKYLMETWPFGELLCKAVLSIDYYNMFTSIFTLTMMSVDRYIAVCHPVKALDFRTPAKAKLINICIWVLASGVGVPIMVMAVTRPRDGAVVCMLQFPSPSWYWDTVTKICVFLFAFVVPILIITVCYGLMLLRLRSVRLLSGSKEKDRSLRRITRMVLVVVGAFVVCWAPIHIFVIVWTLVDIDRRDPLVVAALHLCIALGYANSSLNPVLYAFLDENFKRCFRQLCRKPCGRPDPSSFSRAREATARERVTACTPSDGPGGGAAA
MEASURED_ATTRIBUTE: Ki (µM)

C[C@@H](Cc1ccsc1)NC(=O)NCC1(N(C)C)Cc2ccccc2C1 [DD 277]
8.4
C[C@@H](Cc1ccsc1)NC(=O)NCC1(N(C)C)CCc2ccccc2C1 (single isomer, unassigned) [DD 262 P2]
7.4
C[C@@H](Cc1ccsc1)NC(=O)NCC1(N(C)C)CCc2cc(O)ccc2C1 (single isomer, unassigned) [DD 272B]
0.84
C[C@@H](Cc1ccsc1)NC(=O)NCC1(N(C)C)CCc2cc(O)ccc2C1 (single isomer, unassigned) [DD 272A]
1.8
C[C@@H](Cc1ccsc1)NC(=O)NCC1(N(C)C)Cc2ccc(O)cc2C1 (single isomer, unassigned) [DD 297B]
2
C[C@@H](Cc1ccsc1)NC(=O)NCC1(N(C)C)CCc2ccccc2C1 (single isomer, unassigned) [DD 262 P1]
14
C[C@@H](Cc1ccsc1)NC(=O)NCC1(N(C)C)Cc2ccc(O)cc2C1 (single isomer, unassigned) [DD 297A]
0.068
